# credit: paper PMC9457773

test: Pharmacokinetic and drug–drug interaction study in rats (plasma, UPLC–MS/MS); conditions: Sprague Dawley, rat, plasma, po, 100 mg/kg, CLz/F, sorafenib in rat plasma; sorafenib 100 mg/kg oral co-administered with canagliflozin 10 mg/kg (IVSOR+CA); n = 6; mean ± SD
OUTCOME_MEASURE: CL/F (mL/min/kg)
Provide only the numeric value, understood in mL/min/kg.

(Q) Note down CL/F recorded for CNC(=O)c1cc(Oc2ccc(NC(=O)Nc3ccc(Cl)c(C(F)(F)F)c3)cc2)ccn1 [sorafenib, Sorafenib]
(A) 42

* * *

test: Pharmacokinetic and drug–drug interaction study in rats (plasma, UPLC–MS/MS); details: Sprague Dawley, rat, plasma, po, 1.2 mg/kg, Vz/F, lenvatinib in rat plasma; lenvatinib 1.2 mg/kg oral co-administered with canagliflozin 10 mg/kg (VLEN+CA); n = 6; mean ± SD
OUTCOME_MEASURE: Vd/F (L/kg)
Provide only the numeric value, understood in L/kg.

(Q) Note down Vd/F recorded for COc1cc2nccc(Oc3ccc(NC(=O)NC4CC4)c(Cl)c3)c2cc1C(N)=O
(A) 1.56

* * *

assay: Pharmacokinetic and drug–drug interaction study in rats (plasma, UPLC–MS/MS); conditions: Sprague Dawley, rat, plasma, po, 1.2 mg/kg, Cmax, lenvatinib in rat plasma; lenvatinib 1.2 mg/kg oral co-administered with canagliflozin 10 mg/kg (VLEN+CA); n = 6; mean ± SD
OUTCOME_MEASURE: Cmax (ng/mL)
Provide only the numeric value, understood in ng/mL.

(Q) Note down Cmax recorded for COc1cc2nccc(Oc3ccc(NC(=O)NC4CC4)c(Cl)c3)c2cc1C(N)=O
(A) 985

* * *

experiment: Pharmacokinetic and drug–drug interaction study in rats (plasma, UPLC–MS/MS); conditions: Sprague Dawley, rat, plasma, po, 100 mg/kg, AUCinf, sorafenib in rat plasma; sorafenib 100 mg/kg oral co-administered with canagliflozin 10 mg/kg (IVSOR+CA); n = 6; mean ± SD
OUTCOME_MEASURE: AUC(0-inf)
Answer with the value and then the unit.

(Q) Note down AUC(0-inf) recorded for CNC(=O)c1cc(Oc2ccc(NC(=O)Nc3ccc(Cl)c(C(F)(F)F)c3)cc2)ccn1 [sorafenib, Sorafenib]
(A) 41300 ng·h/mL

* * *

assay: Pharmacokinetic and drug–drug interaction study in rats (plasma, UPLC–MS/MS); details: Sprague Dawley, rat, plasma, po, 1.2 mg/kg, AUClast, lenvatinib in rat plasma; lenvatinib 1.2 mg/kg oral co-administered with canagliflozin 10 mg/kg (VLEN+CA); n = 6; mean ± SD
OUTCOME_MEASURE: AUC(0-t) (ng·h/mL)
Provide only the numeric value, understood in ng·h/mL.

(Q) Note down AUC(0-t) recorded for COc1cc2nccc(Oc3ccc(NC(=O)NC4CC4)c(Cl)c3)c2cc1C(N)=O
(A) 7280

* * *

experiment: Pharmacokinetic and drug–drug interaction study in rats (plasma, UPLC–MS/MS); conditions: Sprague Dawley, rat, plasma, po, 100 mg/kg, AUClast, sorafenib in rat plasma; oral single dose sorafenib 100 mg/kg alone (ISOR); n = 6; mean ± SD
OUTCOME_MEASURE: AUC(0-t)

(Q) Note down AUC(0-t) recorded for CNC(=O)c1cc(Oc2ccc(NC(=O)Nc3ccc(Cl)c(C(F)(F)F)c3)cc2)ccn1
(A) 40000 ng·h/mL

* * *

assay: Pharmacokinetic and drug–drug interaction study in rats (plasma, UPLC–MS/MS); settings: Sprague Dawley, rat, plasma, po, 100 mg/kg, CLz/F, sorafenib in rat plasma; oral single dose sorafenib 100 mg/kg alone (ISOR); n = 6; mean ± SD
OUTCOME_MEASURE: CL/F (mL/min/kg)
Provide only the numeric value, understood in mL/min/kg.

(Q) Note down CL/F recorded for CNC(=O)c1cc(Oc2ccc(NC(=O)Nc3ccc(Cl)c(C(F)(F)F)c3)cc2)ccn1
(A) 47.7
